Where these numbers come from: patent US5043332A

# measuredOn: Progestogen receptor of the uterus of rabbits (Oryctolagus cuniculus, UniProt P06186)
# Construct: The uterus was removed, weighed and homogenized at 0° C; from tissue; host or cells: rabbit uterus, 105,000 g supernatant (estradiol-primed immature rabbits)
# Sequence (P06186 whole entry): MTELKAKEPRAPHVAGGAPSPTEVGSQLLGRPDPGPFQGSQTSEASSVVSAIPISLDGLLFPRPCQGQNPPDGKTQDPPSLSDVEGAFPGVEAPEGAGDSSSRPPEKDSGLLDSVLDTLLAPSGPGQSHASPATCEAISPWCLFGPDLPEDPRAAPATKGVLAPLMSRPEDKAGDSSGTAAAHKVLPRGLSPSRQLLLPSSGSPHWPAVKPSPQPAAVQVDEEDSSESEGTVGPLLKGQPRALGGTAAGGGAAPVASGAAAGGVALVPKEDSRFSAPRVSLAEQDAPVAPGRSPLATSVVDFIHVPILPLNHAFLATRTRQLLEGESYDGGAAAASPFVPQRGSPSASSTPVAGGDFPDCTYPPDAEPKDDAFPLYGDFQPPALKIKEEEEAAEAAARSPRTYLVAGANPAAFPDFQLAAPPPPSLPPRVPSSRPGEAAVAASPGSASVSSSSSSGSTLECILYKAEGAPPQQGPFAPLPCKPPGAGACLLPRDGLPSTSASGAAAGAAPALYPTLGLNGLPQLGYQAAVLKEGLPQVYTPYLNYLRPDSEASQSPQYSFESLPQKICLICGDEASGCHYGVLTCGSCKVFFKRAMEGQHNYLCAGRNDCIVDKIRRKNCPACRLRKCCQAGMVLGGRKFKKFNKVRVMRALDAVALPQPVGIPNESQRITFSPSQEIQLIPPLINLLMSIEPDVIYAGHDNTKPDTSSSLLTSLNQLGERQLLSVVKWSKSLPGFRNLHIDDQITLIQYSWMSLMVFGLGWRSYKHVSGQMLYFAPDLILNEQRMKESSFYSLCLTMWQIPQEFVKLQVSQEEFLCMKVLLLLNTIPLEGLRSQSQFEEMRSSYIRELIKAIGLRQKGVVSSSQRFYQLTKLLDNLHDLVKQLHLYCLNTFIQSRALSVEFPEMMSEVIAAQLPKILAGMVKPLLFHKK
# assayName: Progestogen receptor binding (displacement of tritiated product R)
# Set-up: species or system rabbit
# measurementContext: second table; incubation 2 H at 0° C.
# Description: C. Progestogen receptor of the uterus of rabbits Immature rabbits weighing about 1 kg received a cutaneous application of 25 μg of estradiol and the animals were killed 5 days later. […] The concentration of tied tritiated R (B) was then measured for each incubate by the technique of adsoprtion on carbon-dextran. The calculation of the relative affinity of […] (ARL) was identical for all of the above receptor tests. […] One determined the line of the equation. […]
metric: relative affinity of tieing (ARL), Progestogen

Ask: Request the reported relative affinity of tieing (ARL), Progestogen associated with C=CC[C@]1(O)CC[C@H]2[C@@H]3CCC4=CC(=O)CCC4=C3[C@@H](c3ccc(N(C)C)cc3)C[C@@]21C [Example 37]
Reply: 175

Ask: Report relative affinity of tieing (ARL), Progestogen for C[C@]12C[C@H](c3ccc([N+](C)(C)[O-])cc3)C3=C4CCC(=O)C=C4CC[C@H]3[C@@H]1CC[C@@]2(O)C#CCl [Example 26] please.
Reply: 6,3

Ask: For the compound CN(C)c1ccc([C@H]2C[C@@]3(C)[C@@H](CC[C@@]3(O)C#Cc3ccccc3)[C@@H]3CCC4=CC(=O)CCC4=C32)cc1 [Example 29] , what relative affinity of tieing (ARL), Progestogen is on record?
Reply: 41

Ask: Requested field: relative affinity of tieing (ARL), Progestogen. Item: CN(C)c1ccc([C@H]2C[C@@]3(C)[C@@H](CC[C@@]3(O)C#C[Si](C)(C)C)[C@@H]3CCC4=CC(=O)CCC4=C32)cc1 [Example 44]
Reply: 15,2

----------
Assignment: determine reported relative affinity of tieing (ARL), Glucocorticoid for the given compounds.
# measuredOn: Gluocorticoid receptor of thymus of rats (Rattus norvegicus, UniProt P06536)
# Construct: The thymus were removed and homogenized at 0° C; from tissue; host or cells: rat thymus, 105,000 g supernatant (adrenalectomized male Sprague-Dawley rats)
# Sequence (P06536 whole entry): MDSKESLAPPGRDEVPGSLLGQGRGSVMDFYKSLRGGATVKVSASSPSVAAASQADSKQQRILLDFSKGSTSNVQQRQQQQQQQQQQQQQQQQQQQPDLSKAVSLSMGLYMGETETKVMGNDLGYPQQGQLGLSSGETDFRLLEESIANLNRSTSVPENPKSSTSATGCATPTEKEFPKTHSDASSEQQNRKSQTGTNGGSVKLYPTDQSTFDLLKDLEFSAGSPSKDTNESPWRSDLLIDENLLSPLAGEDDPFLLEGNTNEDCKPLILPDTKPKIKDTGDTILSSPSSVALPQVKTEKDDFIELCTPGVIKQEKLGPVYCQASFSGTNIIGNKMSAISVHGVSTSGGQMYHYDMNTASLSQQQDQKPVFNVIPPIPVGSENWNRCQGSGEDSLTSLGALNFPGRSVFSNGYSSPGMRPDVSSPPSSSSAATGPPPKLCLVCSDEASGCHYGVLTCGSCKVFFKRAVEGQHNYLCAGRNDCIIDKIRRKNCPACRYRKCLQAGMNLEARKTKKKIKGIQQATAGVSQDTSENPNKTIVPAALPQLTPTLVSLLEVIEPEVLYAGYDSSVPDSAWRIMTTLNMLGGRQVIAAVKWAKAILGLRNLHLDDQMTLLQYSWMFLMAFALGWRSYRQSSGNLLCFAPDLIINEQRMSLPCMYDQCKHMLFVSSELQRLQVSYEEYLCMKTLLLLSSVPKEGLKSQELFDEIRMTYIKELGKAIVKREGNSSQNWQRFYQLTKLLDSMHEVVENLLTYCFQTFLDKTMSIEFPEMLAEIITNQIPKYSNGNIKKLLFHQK
# assayName: Glucocorticoid receptor binding (displacement of tritiated dexamethasone)
# measurementContext: incubation 4 H at 0° C.
Just the number, please.

Ask: Gluocorticoid receptor of thymus of rats (Rattus norvegicus, UniProt P06536) / relative affinity of tieing (ARL), Glucocorticoid / `CC#C[C@]1(O)CC[C@H]2[C@@H]3CCC4=CC(=O)[C@@H](C)CC4=C3[C@@H](c3ccc(N(C)C)cc3)C[C@@]21C` : value?
Reply: 224

Ask: Which measured relative affinity of tieing (ARL), Glucocorticoid belongs to `CC#C[C@]1(O)CC[C@H]2[C@@H]3CCC4=CC(=O)C(C#N)(C#N)CC4=C3[C@@H](c3ccc(N(C)C)cc3)C[C@@]21C` , tested on Gluocorticoid receptor of thymus of rats (Rattus norvegicus, UniProt P06536)?
Reply: 14

Ask: Find the measured relative affinity of tieing (ARL), Glucocorticoid: item `CC#C[C@]1(O)CC[C@H]2[C@@H]3CCC4=CC(=O)C(C)(C)CC4=C3[C@@H](c3ccc(N(C)C)cc3)C[C@@]21C` , target or system Gluocorticoid receptor of thymus of rats (Rattus norvegicus, UniProt P06536).
Reply: 97

Ask: Identify the measured relative affinity of tieing (ARL), Glucocorticoid of `CN(C)CCOc1ccc2c(c1)CC[C@@H]1[C@@H]2[C@@H](c2ccccc2)C[C@]2(C)[C@@H](O)CC[C@@H]12` for Gluocorticoid receptor of thymus of rats (Rattus norvegicus, UniProt P06536).
Reply: 2

Ask: Could you share what relative affinity of tieing (ARL), Glucocorticoid was measured for `CC#C[C@]1(O)CC[C@H]2[C@@H]3CCC4=C(CCC(=O)C4)[C@H]3[C@@H](c3ccc(N(C)C)cc3)C[C@@]21C` , tested on Gluocorticoid receptor of thymus of rats (Rattus norvegicus, UniProt P06536)?
Reply: 83

Ask: For the record `CC#C[C@]1(O)CC[C@H]2[C@@H]3CCC4=CC(=O)[C@H](C)CC4=C3[C@@H](c3ccc(N(C)C)cc3)C[C@@]21C` , what value of relative affinity of tieing (ARL), Glucocorticoid is listed for Gluocorticoid receptor of thymus of rats (Rattus norvegicus, UniProt P06536)?
Reply: 214
